Recorded measurements of melting point, one per entry
Where a name gives a salt, the structure may show the parent alone.

Examples with their reported melting point follow.
{"columns": ["Molecule", "melting point"],
 "data": [
  ["CN1CCC(Oc2cccc(NC(=O)c3ccc(Cl)cc3Cl)c2)CC1.Cl", "131 to 133 °C"],
  ["Cl.O=C(Nc1cccc(OC2CCNCC2)n1)c1ccc(F)cc1 (hydrate or solvate)", "251 to 253 °C"],
  ["CN1CCC(Oc2cccc(NC(=O)c3ccc(F)cc3)n2)CC1(C)C (stereo not drawn) (as salt: salt)", "145 °C"]
]}

[Q] If you can, please state the reported melting point value of CN1CCC(Oc2cc(F)cc(NC(=O)c3ccc(F)cc3)c2)CC1.Cl .
[A] 150 °C

[Q] If you can, please state the reported melting point value of C[C@H]1CN(C)CC[C@H]1Oc1cccc(NC(=O)C2=CC=C(F)CC2Cl)n1 (single isomer, unassigned) (as salt: salt) .
[A] 238 °C

[Q] If you can, please state the reported melting point value of C[C@H]1C[C@H](Oc2cc(NC(=O)c3ccc(F)cc3Cl)ccc2C(C)(C)C)CCN1C.Cl (single isomer, unassigned) .
[A] 260 °C

[Q] If you can, please state the reported melting point value of CCN1CCC(Oc2cccc(NC(=O)c3c(F)cccc3Cl)c2)CC1.Cl .
[A] 262 °C (dec.)

[Q] If you can, please state the reported melting point value of CN1CCC(Oc2cccc(NC(=O)c3c(Cl)cccc3Cl)c2)CC1.Cl .
[A] 170 to 171 °C
